The reported numbers originate from PubChem BioAssay (NCATS).

System: Muscarinic acetylcholine receptor M1 (Rattus norvegicus) (UniProt P08482)
Sequence (P08482 whole entry, looked up): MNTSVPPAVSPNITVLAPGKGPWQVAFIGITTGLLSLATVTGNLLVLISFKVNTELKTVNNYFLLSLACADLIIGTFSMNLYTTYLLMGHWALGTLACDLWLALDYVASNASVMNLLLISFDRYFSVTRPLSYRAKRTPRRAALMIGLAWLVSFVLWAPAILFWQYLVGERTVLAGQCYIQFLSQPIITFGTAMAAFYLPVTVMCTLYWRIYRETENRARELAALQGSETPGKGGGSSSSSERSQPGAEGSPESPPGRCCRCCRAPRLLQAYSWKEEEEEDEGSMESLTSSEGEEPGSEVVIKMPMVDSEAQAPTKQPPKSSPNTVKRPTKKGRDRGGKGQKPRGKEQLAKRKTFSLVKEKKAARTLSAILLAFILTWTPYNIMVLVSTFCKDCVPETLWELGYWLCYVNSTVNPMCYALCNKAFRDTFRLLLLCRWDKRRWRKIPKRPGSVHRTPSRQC
Experimental Protocol: qHTS Assay for Antagonists of Acetylcholine Muscarinic M1 Receptor: Kinetic Measurement of Intracellular Calcium Response (AID 943); also: nearly all actives have a fitted effect of over 75% in size; also: potency is read from the fitted curve at half-maximal effect
Condition Parameters: M1-expressing cells, kinetic intracellular calcium fluorescence; series mostly up to 35.3 µM
Inconclusive results are not listed. Activity calls are given as the source filed them. Calls follow the shape of the dose curve; as a rule, active = well fitted inhibition curve with a large enough effect; inconclusive = small, poorly fitted or top-dose-only effect; inactive = no such curve, though single readings can be large or run the other way.
Property: Potency

- Smiles Entry: "CCCCN1CCC(n2c(=O)[nH]c3ccccc32)CC1"
  Property: "Potency"
  Result: "inactive"
- Smiles Entry: "CC1(C)CCC=[N+]1[O-]"
  Property: "Potency"
  Result: "inactive"
- Smiles Entry: "c1ccc(-c2ccccn2)nc1"
  Property: "Potency"
  Result: "inactive"
- Smiles Entry: "O=C(O)[C@@H]1C[C@@H](C(=O)O)N1"
  Property: "Potency"
  Result: "inactive"
- Smiles Entry: "O=C(O)CC[C@@H](C(=O)O)N1C(=O)c2ccccc2C1=O"
  Property: "Potency"
  Result: "0.0251 µM (active)"

Which Potency is reported for this compound? NCCCCC(=O)O
inactive

Query C[C@@H](NC(=O)/C(C#N)=C/c1ccc(O)c(O)c1)c1ccccc1 next
inactive

Could you do the same for C[N+](C)(CCCCCC[N+](C)(C)CCCN1C(=O)c2cccc3cccc(c23)C1=O)CCCN1C(=O)c2cccc3cccc(c23)C1=O , please?
0.398 µM (active)

Follow-up entry: CCCCCCCC/C=C\CCCCCCCC(=O)NCCO
inactive

Repeat with CN(C)c1nc2c(Br)c(Br)c(Br)c(Br)c2[nH]1
inactive

###

Experimental Protocol: qHTS of pediatric cancer cell lines to identify multiple opportunities for drug repurposing: Primary screen for RD cells (AID 1347104); also: nearly all actives have a fitted effect of over 55% in size
Condition Parameters: RD rhabdomyosarcoma viability, CellTiter-Glo luminescence, 48 h; series mostly up to 46 µM
Records with an inconclusive call do not appear. Activity calls are given as the source filed them. Calls come from the whole dose curve; as a rule, active = well fitted cell-killing curve with a large enough effect; inconclusive = small, poorly fitted or top-dose-only effect; inactive = flat fitted curve, though single readings scatter.
Your answer must be one of the following: active, inactive

Previously resolved entries follow.
- Compound: "Nc1c(CC(=O)O)cccc1C(=O)c1ccc(Br)cc1"
  Answer Label: "inactive"
- Compound: "COc1cccc2c1C(=O)c1c(O)c3c(c(O)c1C2=O)C[C@@](O)(C(=O)CO)C[C@@H]3O[C@H]1C[C@H](N)[C@H](O[C@@H]2CCCCO2)[C@H](C)O1"
  Answer Label: "active"

So what was the verdict on c1ccc2sc(SSc3nc4ccccc4s3)nc2c1 in this test?
inactive

Request: CC1(C)S[C@@H]2[C@H](NC(=O)[C@H](N)c3ccccc3)C(=O)N2[C@H]1C(=O)O
inactive

Try this compound next: CN(C)c1ccc(C(=C2C=CC(=[N+](C)C)C=C2)c2ccccc2)cc1
active

Note, next up: CN1CC(=O)N/C1=N/C(=O)Nc1cccc(Cl)c1
inactive

Also O=C1CN(/N=C/c2ccc([N+](=O)[O-])o2)C(=O)N1 ?
inactive

###

Test system: GB4
Experimental Protocol: qHTS profiling for inhibitors of Plasmodium falciparum proliferation (AID 504749); also: nearly all actives have a fitted effect of over 60% in size
Condition Parameters: P. falciparum in erythrocytes, SYBR Green DNA, 72 h; series mostly up to 28.7 µM
Results filed as inconclusive are left out. Active and inactive are the calls of the source. The call rests on the fitted dose curve; in most records, active means well fitted inhibition curve with a large enough effect; inconclusive means small, poorly fitted or top-dose-only effect; inactive means flat fitted curve, though single readings scatter.
Entry note: the call must match one of active, inactive

- Compound: "[O-][n+]1ccccc1SSc1cccc[n+]1[O-]"
  Answer Label: "active"
- Compound: "Oc1c(Br)cc(Br)c2cccnc12"
  Answer Label: "inactive"
- Compound: "O=c1[nH]c2ccccc2n1CCCN1CCN(C(c2ccccc2)c2ccccc2)CC1"
  Answer Label: "active"
- Compound: "O=C(O)[C@H](O)[C@@H](O)[C@H](O)[C@H](O)CO"
  Answer Label: "inactive"

Now take the following compound into account.
Which result was noted for this compound in the test: C=CCCCCCCCCC(=O)O
inactive
